Data provenance: patent US20210255193A1

As shown below, each of these compounds has a reported isoTOP-ABPP ratio (R) at liganded lysine Q9NVS9_K100 value.
biological target: PNPO Pyridoxine-5-phosphate oxidase (Homo sapiens, UniProt Q9NVS9); construct: endogenous in cells; host or cells: MDA-MB-231 (soluble fraction of lysate); assay: competitive isoTOP-ABPP; format: binding; details: 50 uM, in vitro, sol, 231
Sequence (Q9NVS9 whole entry, the tested form may be a part): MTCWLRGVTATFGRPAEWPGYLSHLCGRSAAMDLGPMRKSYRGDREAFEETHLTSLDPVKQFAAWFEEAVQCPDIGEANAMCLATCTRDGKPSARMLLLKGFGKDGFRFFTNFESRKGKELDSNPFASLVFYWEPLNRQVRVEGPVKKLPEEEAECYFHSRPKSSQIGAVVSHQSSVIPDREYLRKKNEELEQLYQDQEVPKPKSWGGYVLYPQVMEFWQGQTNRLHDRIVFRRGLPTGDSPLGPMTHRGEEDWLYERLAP
Returns: the value as a bare number; no unit string appended.

Here is how some compounds turned out for isoTOP-ABPP ratio (R) at liganded lysine Q9NVS9_K100.
| COMPOUND | OBSERVED MEASUREMENT |
| --- | --- |
| O=C(Oc1ccc([N+](=O)[O-])cc1[N+](=O)[O-])c1ccc(Oc2ccccc2)cc1 [fragment 39, 2,4-Dinitrophenyl 4-phenoxybenzoate] | 0.9 |
| O=C(Oc1ccc([N+](=O)[O-])cc1[N+](=O)[O-])c1ccccc1Nc1cccc(C(F)(F)F)c1 [fragment 40] | 0.9 |
| O=C(CC12CC3CC(CC(C3)C1)C2)Oc1ccc([N+](=O)[O-])cc1[N+](=O)[O-] [fragment 38] | 0.9 |
| O=C(Oc1ccc([N+](=O)[O-])cc1[N+](=O)[O-])C1CCN(C(=O)OCc2ccccc2)CC1 [fragment 34] | 0.9 |
| CC(C)(C)OC(=O)NCCCC(=O)Oc1ccc([N+](=O)[O-])cc1[N+](=O)[O-] [fragment 41] | 1.0 |
| CC(=O)Oc1ccc([N+](=O)[O-])cc1[N+](=O)[O-] [fragment 43, 2,4-Dinitrophenyl acetate] | 1.0 |
| O=C(CCc1coc2cc(F)ccc2c1=O)Oc1ccc([N+](=O)[O-])cc1[N+](=O)[O-] [fragment 36] | 1.0 |
| O=C(Oc1ccc([N+](=O)[O-])cc1[N+](=O)[O-])C(c1ccccc1)(c1ccccc1)c1ccccc1 [fragment 42, 2,4-Dinitrophenyl 2,2,2-triphenylacetate] | 0.9 |
| O=C(Oc1ccc([N+](=O)[O-])cc1[N+](=O)[O-])c1ccc(-c2ccccc2)cc1 [fragment 37] | 0.9 |

Incoming: Give isoTOP-ABPP ratio (R) at liganded lysine Q9NVS9_K100 for this entry on PNPO Pyridoxine-5-phosphate oxidase (Homo sapiens, UniProt Q9NVS9): O=C(Oc1ccc([N+](=O)[O-])cc1[N+](=O)[O-])c1ccc2ccccc2n1 [fragment 35]
Outgoing: 0.9

---

Let's look at some compounds and their measured R value (DMSO/fragment) for probe 1 labeling.
target: ABHD10 Abhydrolase domain-containing protein 10, mitochondrial (Homo sapiens, UniProt Q9NUJ1); construct: endogenous in cells; host or cells: MDA-MB-231 lysate; assay: competitive isoTOP-ABPP; assay type: binding; details: Q9NUJ1_K185; 50 uM, 231 sol, in vitro
Sequence (Q9NUJ1 53-306): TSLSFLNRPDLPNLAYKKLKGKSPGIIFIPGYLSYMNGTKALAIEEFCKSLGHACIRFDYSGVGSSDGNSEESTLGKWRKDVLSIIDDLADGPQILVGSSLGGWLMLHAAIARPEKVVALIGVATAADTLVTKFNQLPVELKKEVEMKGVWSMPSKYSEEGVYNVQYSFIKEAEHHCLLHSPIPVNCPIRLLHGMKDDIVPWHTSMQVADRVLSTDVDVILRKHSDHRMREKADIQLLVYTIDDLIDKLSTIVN
# print the numeric value only

| COMPOUND | OBSERVED MEASUREMENT |
| --- | --- |
| O=C(Oc1c(F)c(F)c(F)c(F)c1F)c1cc(C(F)(F)F)cc(C(F)(F)F)c1 [fragment 21] | 4.7 |

Incoming: Fill in R value (DMSO/fragment) for probe 1 labeling for record O=C(Oc1c(F)c(F)c(F)c(F)c1F)C(c1ccccc1)c1ccccc1 [fragment 20, Pentafluorophenyl 2,2-diphenylacetate]
Outgoing: 1.1

Incoming: Supply recorded R value (DMSO/fragment) for probe 1 labeling for COc1cc(CCC(=O)Oc2c(F)c(F)c(F)c(F)c2F)cc(OC)c1OC [fragment 23] here.
Outgoing: 2.0

Incoming: Using known records, supply R value (DMSO/fragment) for probe 1 labeling for Cn1cc(CC(=O)Oc2c(F)c(F)c(F)c(F)c2F)c2ccccc21 [fragment 22]
Outgoing: 1.5

Incoming: Output R value (DMSO/fragment) for probe 1 labeling of O=C(CCc1cn(-c2ccccc2)nc1-c1ccccc1)Oc1c(F)c(F)c(F)c(F)c1F [fragment 19]
Outgoing: 1.2
